This collection of values is drawn from patent US20240409629A1.

target: T1, human CLDN18.2 (human); assay: FACS, NUGC-4 cells (natural CLDN18.2)
T1 construct: also called claudin18.2
parameter: pEC50
Remember the convention: pEC50 equals -log10 of concentration in molar.

| binder | value |
| --- | --- |
| humanized antibody hz40F6-1.3 (antibody, human IgG1, kappa, V domains shown) VH: QVQLVESGGGVVQPGRSLRLSCAASGFTLTSYGVYWVRQAPGKGLEWVAVVWAGGNTNYADALKGRFTISKDNSKSTLYLQMNSLRAEDTAVYYCARDRGRLLAMDYWGQGTLVTVSS VL: DIVMTQSPDSLAVSLGERATINCKSSQSLLNSGNQKNYLAWYQQKPGQPPKLLIYGASTRESGVPDRFTGSGSGTDFTLTISSLQAEDVAVYYCQNDHFFPFTFGQGTKVEIKR | 7.75 |
| humanized antibody hz40F6-1.2 (antibody, human IgG1, kappa, V domains shown) VH: QVQLVESGGGVVQPGRSLRLSCAASGFTLTSYGVYWVRQAPGKGLEWVAVVWAGGNTNYNSALMSRFTISKDNSKSTLYLQMNSLRAEDTAVYYCARDRGRLLAMDYWGQGTLVTVSS VL: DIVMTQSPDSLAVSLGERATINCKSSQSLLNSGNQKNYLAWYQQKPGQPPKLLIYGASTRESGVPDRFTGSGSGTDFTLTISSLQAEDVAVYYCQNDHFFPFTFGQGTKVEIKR | 7.80 |

Now for the binder whose pEC50 we want.
If you can, please state the reported pEC50 value of humanized antibody hz40F6-2.1 (antibody, human IgG1, kappa, V domains shown) VH: QVQLVESGGGVVQPGRSLRLSCAASGFTLTSYGVYWVRQAPGKGLEWVAVVWAGGNTNYADSVKGRFTISKDNSKSTLYLQMNSLRAEDTAVYYCARDRGRLLAMDYWGQGTLVTVSS VL: DIVMTQSPDSLAVSLGERATINCKSSQSLLNSGNQKNYLAWYQQKPGQPPKLLIYGASTRESGVPDRFSGSGSGTDFTLTISSLQAEDVAVYYCQNDYFFPFTFGQGTKVEIKR . 7.73
